# target: human farnesoid X receptor (Homo sapiens, UniProt Q96RI1)
# Construct: CMX-farnesoid X receptor (full length human farnesoid X receptor); expressed in transfected cells; host or cells: CV-1 African Green Monkey Kidney cells
# Sequence (Q96RI1 1-472 isoform Q96RI1-2): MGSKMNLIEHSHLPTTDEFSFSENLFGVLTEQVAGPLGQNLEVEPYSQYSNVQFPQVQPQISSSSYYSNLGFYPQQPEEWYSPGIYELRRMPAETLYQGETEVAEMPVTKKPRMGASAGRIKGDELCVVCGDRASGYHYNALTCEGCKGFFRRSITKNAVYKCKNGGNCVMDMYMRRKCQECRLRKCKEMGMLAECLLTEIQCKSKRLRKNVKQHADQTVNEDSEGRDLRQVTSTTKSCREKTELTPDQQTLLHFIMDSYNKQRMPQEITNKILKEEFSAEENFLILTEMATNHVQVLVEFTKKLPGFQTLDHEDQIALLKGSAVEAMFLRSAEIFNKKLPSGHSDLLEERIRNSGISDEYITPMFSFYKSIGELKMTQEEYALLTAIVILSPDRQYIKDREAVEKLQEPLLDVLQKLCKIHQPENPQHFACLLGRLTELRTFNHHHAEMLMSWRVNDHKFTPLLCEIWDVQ
# Sequence (P19793 whole entry partner): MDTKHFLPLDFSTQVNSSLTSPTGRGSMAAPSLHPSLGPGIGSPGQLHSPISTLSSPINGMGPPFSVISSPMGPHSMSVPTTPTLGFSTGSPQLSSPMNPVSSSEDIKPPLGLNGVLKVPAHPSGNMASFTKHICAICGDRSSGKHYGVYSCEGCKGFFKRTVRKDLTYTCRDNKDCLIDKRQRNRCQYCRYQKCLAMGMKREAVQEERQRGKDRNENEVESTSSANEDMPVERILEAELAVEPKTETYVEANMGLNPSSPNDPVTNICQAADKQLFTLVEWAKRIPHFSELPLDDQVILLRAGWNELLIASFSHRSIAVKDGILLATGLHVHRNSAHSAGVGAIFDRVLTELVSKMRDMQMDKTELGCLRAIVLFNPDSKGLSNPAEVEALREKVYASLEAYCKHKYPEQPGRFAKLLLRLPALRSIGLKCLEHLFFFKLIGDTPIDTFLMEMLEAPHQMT
# runDescription: FXR in vitro assays (farnesoid X receptor/ECREx7 co-transfection assay, TR-FRET assay), Table I
# Assay type: cell-based
# measurementContext: agonist activity, one or more of the in vitro assays; read-out: EC50
reportedEndpoint: EC50

// solved cases for EC50 follow
{"chemicalStructure": "CC(C)OC(=O)C1=CN(C(=O)N2CCCN(C)CC2)CC(C)(C)c2c1[nH]c1ccccc21", "target": "human farnesoid X receptor (Homo sapiens, UniProt Q96RI1)", "EC50": "0.1 to 1 µM"}
{"chemicalStructure": "CC(=O)C1=CN(C(=O)c2ccc(F)c(F)c2)CC(C)(C)c2c1[nH]c1ccccc21", "target": "human farnesoid X receptor (Homo sapiens, UniProt Q96RI1)", "EC50": "0.1 to 1 µM"}
{"chemicalStructure": "CC(C)OC(=O)C1=CN(C(=O)N2CCN(C)CC2)CC(C)(C)c2c1[nH]c1cc(F)ccc21", "target": "human farnesoid X receptor (Homo sapiens, UniProt Q96RI1)", "EC50": "0.01 to 0.1 µM"}

Data request: Quick one: EC50 for CC(C)OC(=O)C1=CN(C(=O)N2C[C@@H]3C[C@H]2CN3C)CC(C)(C)c2c1[nH]c1ccccc21 ?
Data returned: 0.1 to 1 µM

====

# runDescription: Kinetic solubility assay
# measurementContext: pH 7.4, aqueous buffer, kinetic from dmso stock
Catalogue of solubility kinetic at 1.5 h values

// solved cases for solubility kinetic at 1.5 h follow
{"molecule": "CC(C)OC(=O)C1=CN(C(=O)c2ccc(F)c(F)c2)CC(C)(C)c2c1[nH]c1cc(OC(=O)NCCN(C)C)ccc21 [Example 93]", "solubility kinetic at 1.5 h": "> 10 µM"}
{"molecule": "CC(C)OC(=O)C1=CN(C(=O)c2cc(C(F)(F)F)ccc2C(F)(F)F)CC(C)(C)c2c1[nH]c1ccccc21 [Example 137]", "solubility kinetic at 1.5 h": "0.1 to 1 µM"}
{"molecule": "CC(C)CCC(=O)N1C=C(C(=O)OC(C)C)c2[nH]c3ccccc3c2C(C)(C)C1 [Example 34]", "solubility kinetic at 1.5 h": "> 10 µM"}

Now look at this entry.
Data request: Quick one: solubility kinetic at 1.5 h for CC(C)OC(=O)C1=CN(C(=O)c2ccc(F)c(C(F)(F)F)c2)CC(C)(C)c2c1[nH]c1ccccc21 [Example 83] ?
Data returned: 1 to 10 µM

====

# target: human farnesoid X receptor (Homo sapiens, UniProt Q96RI1)
# Construct: CMX-farnesoid X receptor (full length human farnesoid X receptor); expressed in transfected cells; host or cells: CV-1 African Green Monkey Kidney cells
# runDescription: FXR in vitro assays (farnesoid X receptor/ECREx7 co-transfection assay, TR-FRET assay), Table I
# Format: cell-based
# measurementContext: agonist activity, one or more of the in vitro assays; read-out: EC50
# Protocol: The basic co-transfection protocol for measuring the farnesoid X receptor activity is as follows. CV-1 African Green Monkey Kidney cells were plated 24 hours before transfection to achieve approximately 70-80 percent confluency. […]
pEC50: −log10 of the molar value.
Catalogue of pEC50 values

{"molecule": "CC(C)OC(=O)C1=CN(C(=O)c2cccc(CCl)c2)CC(C)(C)c2c1[nH]c1ccccc21", "reported": "7.00 to 8.00"}
{"molecule": "CC1(C)CN(C(=O)c2ccc(F)c(F)c2)C=C(C(=O)OC[C@@H](O)CO)c2[nH]c3ccccc3c21", "reported": "7.00 to 8.00"}
{"molecule": "Cc1cc(C(=O)N2C=C(C(=O)OC(C)C)c3[nH]c4ccccc4c3C(C)(C)C2)ccc1F", "reported": "8.00 to 9.00"}

Data request: Recall the recorded pEC50 for CC(C)OC(=O)C1=CN(C(=O)N2CCCN(Cc3ccccc3)CC2)CC(C)(C)c2c1[nH]c1ccccc21 with human farnesoid X receptor (Homo sapiens, UniProt Q96RI1) and state it.
Data returned: 7.00 to 8.00

Data request: Recall the recorded pEC50 for CC(C)OC(=O)C1=CN(C(=O)c2cccc(F)c2)CC(C)(C)c2c1[nH]c1ccccc21 with human farnesoid X receptor (Homo sapiens, UniProt Q96RI1) and state it.
Data returned: 8.00 to 9.00

Data request: Recall the recorded pEC50 for CC(C)NC(=O)C1CN(C(=O)c2ccc(F)c(F)c2)CC(C)(C)c2c1[nH]c1ccccc21 (stereo not drawn) with human farnesoid X receptor (Homo sapiens, UniProt Q96RI1) and state it.
Data returned: 5.00 to 6.00

Data request: Recall the recorded pEC50 for CC(C)OC(=O)C1=CN(C(=O)c2cccc(C(F)(F)F)c2F)CC(C)(C)c2c1[nH]c1ccccc21 with human farnesoid X receptor (Homo sapiens, UniProt Q96RI1) and state it.
Data returned: 7.00 to 8.00

Data request: Recall the recorded pEC50 for CC(C)OC(=O)C1=CN(C(=O)N2CCOCC2)CC(C)(C)c2c1[nH]c1ccccc21 with human farnesoid X receptor (Homo sapiens, UniProt Q96RI1) and state it.
Data returned: 7.00 to 8.00

Data request: Recall the recorded pEC50 for CC(C)OC(=O)C1=CN(C(=O)NC2CCCC2)CC(C)(C)c2c1[nH]c1ccccc21 with human farnesoid X receptor (Homo sapiens, UniProt Q96RI1) and state it.
Data returned: 7.00 to 8.00

Data request: Recall the recorded pEC50 for CC(C)OC(=O)C1=CN(C(=O)c2c(F)ccc(F)c2Cl)CC(C)(C)c2c1[nH]c1ccccc21 with human farnesoid X receptor (Homo sapiens, UniProt Q96RI1) and state it.
Data returned: 7.00 to 8.00

====

# target: human farnesoid X receptor (Homo sapiens)
# Construct: CMX-farnesoid X receptor (full length human farnesoid X receptor); expressed in transfected cells; host or cells: CV-1 African Green Monkey Kidney cells
# runDescription: FXR in vitro assays (farnesoid X receptor/ECREx7 co-transfection assay, TR-FRET assay), Table I
# Format: cell-based
# measurementContext: agonist activity, one or more of the in vitro assays; read-out: EC50
pEC50: −log10 of the molar value.
reportedEndpoint: pEC50

// solved cases for pEC50 follow
{"compound": "CCN1CCN(Cc2cccc(C(=O)N3C=C(C(=O)OC(C)C)c4[nH]c5ccccc5c4C(C)(C)C3)c2)CC1 [Example 120]", "reported": "6.00 to 7.00"}
{"compound": "CC(C)OC(=O)C1=CN(C(=O)c2ccc(F)c(C(F)(F)F)c2)CC(C)(C)c2c1[nH]c1ccccc21 [Example 83]", "reported": "7.00 to 8.00"}
{"compound": "CC1(C)CN(C(=O)c2ccc(F)c(F)c2)C=C(C(=O)OCCO)c2[nH]c3ccccc3c21 [Example 196]", "reported": "7.00 to 8.00"}

Data request: Quick one: pEC50 for Cc1cccc(C(=O)N2C=C(C(=O)OC(C)C)c3[nH]c4ccccc4c3C(C)(C)C2)c1 [Example 86] ?
Data returned: 8.00 to 9.00

Data request: Quick one: pEC50 for CC(=O)N1CCCN(Cc2cccc(C(=O)N3C=C(C(=O)OC(C)C)c4[nH]c5ccccc5c4C(C)(C)C3)c2)CC1 [Example 177] ?
Data returned: 6.00 to 7.00

Data request: Quick one: pEC50 for CC(C)OC(=O)C1=CN(C(=O)NC2CCCCCC2)CC(C)(C)c2c1[nH]c1ccccc21 [Example 46] ?
Data returned: 7.00 to 8.00

Data request: Quick one: pEC50 for CCN1CCN(C(=O)N2C=C(C(=O)OC(C)C)c3[nH]c4ccccc4c3C(C)(C)C2)CC1 [Example 25] ?
Data returned: 7.00 to 8.00

====

# target: human farnesoid X receptor (Homo sapiens, UniProt Q96RI1)
# Construct: CMX-farnesoid X receptor (full length human farnesoid X receptor); expressed in transfected cells; host or cells: CV-1 African Green Monkey Kidney cells
# runDescription: FXR in vitro assays (farnesoid X receptor/ECREx7 co-transfection assay, TR-FRET assay), Table I
# Format: cell-based
# measurementContext: agonist activity, one or more of the in vitro assays; read-out: EC50
pEC50: −log10 of the molar value.
reportedEndpoint: pEC50

// solved cases for pEC50 follow
{"compound": "CC(C)OC(=O)C1=CN(C(=O)c2ccc(Cl)cc2)CC(C)(C)c2c1[nH]c1ccccc21", "pEC50": "7.00 to 8.00"}
{"compound": "CC(C)OC(=O)C1=CN(C(=O)c2ccc(C(F)(F)F)c(F)c2)CC(C)(C)c2c1[nH]c1ccccc21", "pEC50": "7.00 to 8.00"}
{"compound": "CC(C)OC(=O)C1=CN(C(=O)N2CCC[C@@H](N3CCCCC3)C2)CC(C)(C)c2c1[nH]c1ccccc21", "pEC50": "5.00 to 6.00"}
{"compound": "CC(C)OC(=O)C1=CN(C(=O)NCc2ccccc2)CC(C)(C)c2c1[nH]c1ccccc21", "pEC50": "5.00 to 6.00"}
{"compound": "CC(C)OC(=O)C1=CN(C(=O)c2ccccc2Cl)CC(C)(C)c2c1[nH]c1ccccc21", "pEC50": "8.00 to 9.00"}
{"compound": "CC(C)OC(=O)C1=CN(C(=O)c2ccccc2Br)CC(C)(C)c2c1[nH]c1ccccc21", "pEC50": "7.00 to 8.00"}

Now look at this entry.
Data request: Quick one: pEC50 for CC(COC(=O)c1ccc(F)c(F)c1)OC(=O)C1=CN(C(=O)c2ccc(F)c(F)c2)CC(C)(C)c2c1[nH]c1ccccc21 (stereo not shown) ?
Data returned: 7.00 to 8.00

Values were extracted from patent US20090203577A1.
